Assignment: determine reported glomerular width for the given compounds.
# Test system: Danio rerio Tg(wt1b:EGFP) embryo, pronephros
# experimentSummary: glomerular width (mean of left and right), fold change vs DMSO control; higher = wider glomerulus
# experimentalSetup: 25 µM; exposure: 24-48 hpf
Structures can show the parent of a compound that is named as a salt.
I'd appreciate a reply containing only the number, no unit.

Lookup: Query glomerular width on Danio rerio Tg(wt1b:EGFP) embryo, pronephros for CCOC(=O)O[C@]1(C(=O)COC(=O)CC)CC[C@H]2[C@@H]3CCC4=CC(=O)C=C[C@]4(C)[C@H]3[C@@H](O)C[C@@]21C [Prednicarbate]
Found: 1.11

Lookup: Give recorded glomerular width with Danio rerio Tg(wt1b:EGFP) embryo, pronephros for the following compound: "CC(=O)OC[C@H]1O[C@@H]([S-])[C@H](OC(C)=O)[C@@H](OC(C)=O)[C@@H]1OC(C)=O.CCP(CC)CC.[Au+]"
Found: 0.789

Lookup: Provide the documented glomerular width with Danio rerio Tg(wt1b:EGFP) embryo, pronephros as the system for "CC(=O)Oc1ccccc1C(=O)O"
Found: 0.951

Lookup: Write down the reported glomerular width of CC(N)CCCC(C)(C)O (centres undefined) [Heptaminol hydrochloride] , test system: Danio rerio Tg(wt1b:EGFP) embryo, pronephros.
Found: 1

Lookup: Query glomerular width on Danio rerio Tg(wt1b:EGFP) embryo, pronephros for CN(C)CCC=C1c2ccccc2COc2ccccc21 [Doxepin hydrochloride]
Found: 0.99

Lookup: Tell me reported glomerular width for "O=C(O)c1ccccc1OP(=O)(O)O" , tested with Danio rerio Tg(wt1b:EGFP) embryo, pronephros.
Found: 1.07

Lookup: Query glomerular width on Danio rerio Tg(wt1b:EGFP) embryo, pronephros for "C#CCN[C@@H]1CCc2ccccc21"
Found: 0.994

Lookup: What reported glomerular width corresponds to OC(CCN1CCCC1)(c1ccccc1)C1CCCCC1 (centres undefined) [Procyclidine hydrochloride] on Danio rerio Tg(wt1b:EGFP) embryo, pronephros?
Found: 1.1

Lookup: GET /values?readout=glomerular width&system=Danio rerio Tg(wt1b:EGFP) embryo, pronephros&item= "C[C@H](Cc1cc2c(c(C(N)=O)c1)N(CCCO)CC2)NCCOc1ccccc1OCC(F)(F)F"
Found: 0.985

Lookup: Item "C[C@H]1O[C@@H](O[C@H]2[C@@H](O)C[C@H](O[C@H]3[C@@H](O)C[C@H](O[C@H]4CC[C@@]5(C)[C@H](CC[C@@H]6[C@@H]5C[C@@H](O)[C@]5(C)[C@@H](C7=CC(=O)OC7)CC[C@]65O)C4)O[C@@H]3C)O[C@@H]2C)C[C@H](O)[C@@H]1O" with Danio rerio Tg(wt1b:EGFP) embryo, pronephros - glomerular width?
Found: 1.08

Lookup: Short answer please: glomerular width, Danio rerio Tg(wt1b:EGFP) embryo, pronephros, entry CC(=O)Nc1nnc(S(N)(=O)=O)s1 [Acetazolamide]
Found: 0.973

Lookup: Param readout= glomerular width; system= Danio rerio Tg(wt1b:EGFP) embryo, pronephros; entry= "C[C@@H](O)[C@H]1C(=O)N2C(C(=O)O)=C(S[C@@H]3CN[C@H](C(=O)N(C)C)C3)[C@H](C)[C@H]12" ; returns value.
Found: 0.957

Lookup: Write down the reported glomerular width of O=C1NCC2(CCN(CCc3ccccc3)CC2)O1 [Fenspiride hydrochloride] , test system: Danio rerio Tg(wt1b:EGFP) embryo, pronephros.
Found: 0.944

Lookup: Tell me reported glomerular width for "CCC[C@H](N[C@@H](C)C(=O)N1[C@H](C(=O)O)C[C@@H]2CCCC[C@@H]21)C(=O)OCC" , tested with Danio rerio Tg(wt1b:EGFP) embryo, pronephros.
Found: 1.09

Lookup: Enter reported glomerular width observed with Danio rerio Tg(wt1b:EGFP) embryo, pronephros for CCOc1ccc2ccccc2c1C(=O)N[C@@H]1C(=O)N2[C@@H]1SC(C)(C)[C@@H]2C(=O)O [Nafcillin sodium salt monohydrate]
Found: 0.941

Lookup: Find the measured glomerular width: item CC(C)NCC(O)COc1ccc(COCCOC(C)C)cc1 (centres undefined) [Bisoprolol fumarate] , target or system Danio rerio Tg(wt1b:EGFP) embryo, pronephros.
Found: 1.07

Lookup: Form field - read-out: glomerular width; system: Danio rerio Tg(wt1b:EGFP) embryo, pronephros; submitted item: CC(=O)O[C@]1(C(C)=O)CC[C@H]2[C@@H]3C=C(Cl)C4=CC(=O)CC[C@]4(C)[C@H]3CC[C@@]21C [Chlormadinone acetate]
Found: 0.909

Lookup: Give Danio rerio Tg(wt1b:EGFP) embryo, pronephros glomerular width for "C#C[C@]1(O)CC[C@H]2[C@@H]3CCC4=C(CCC(=O)C4)[C@H]3CC[C@@]21C"
Found: 0.989

Lookup: So what glomerular width did "O=c1[nH]cc(F)c(=O)[nH]1" get with Danio rerio Tg(wt1b:EGFP) embryo, pronephros?
Found: 1.02

Lookup: API: value(readout= glomerular width, system= Danio rerio Tg(wt1b:EGFP) embryo, pronephros, query= CN(Cc1cc(Br)cc(Br)c1N)C1CCCCC1 [Bromhexine hydrochloride] )
Found: 0.984

Lookup: Could you share what glomerular width was measured for C[N+]1(C)CCC(OC(=O)C(O)(c2ccccc2)C2CCCC2)C1 (centres undefined) [Glycopyrrolate] , tested on Danio rerio Tg(wt1b:EGFP) embryo, pronephros?
Found: 1.02

Lookup: Record lookup: for Danio rerio Tg(wt1b:EGFP) embryo, pronephros, what glomerular width belongs to CC(C)(C)NCC(O)COc1cccc2c1CC(O)C(O)C2 (centres undefined) ?
Found: 1.03

Lookup: Record lookup: for Danio rerio Tg(wt1b:EGFP) embryo, pronephros, what glomerular width belongs to COc1cccc(N(C)C(=S)Oc2ccc3c(c2)CCCC3)n1 [Liranaftate] ?
Found: 1.02

Lookup: Return glomerular width measured with Danio rerio Tg(wt1b:EGFP) embryo, pronephros given this compound: CN(C)[C@@H]1C(O)=C(C(N)=O)C(=O)[C@@]2(O)C(O)=C3C(=O)c4c(O)ccc(Cl)c4[C@@H](O)[C@H]3C[C@@H]12 [Demeclocycline hydrochloride]
Found: 0.999

Lookup: I'm curious: which glomerular width was measured for "CCC1(c2ccccc2)C(=O)NCNC1=O" tested on Danio rerio Tg(wt1b:EGFP) embryo, pronephros?
Found: 1.01

Lookup: glomerular width of O=C(N/N=C/c1ccc([N+](=O)[O-])o1)c1ccc(O)cc1 [Nifuroxazide] on Danio rerio Tg(wt1b:EGFP) embryo, pronephros?
Found: 1.02

Lookup: Checklist item: glomerular width tested on Danio rerio Tg(wt1b:EGFP) embryo, pronephros, entry CCCN[C@H]1CCc2nc(N)sc2C1 [Pramipexole dihydrochloride] , value?
Found: 1.03

Lookup: // map CCN(CC)C(=O)N1CCN(C)CC1 [Diethylcarbamazine citrate] to recorded glomerular width (system: Danio rerio Tg(wt1b:EGFP) embryo, pronephros)
Found: 0.958

Lookup: Please tell me: glomerular width of "CCCCN(CCCC)CCCOC(=O)c1ccc(N)cc1" , system Danio rerio Tg(wt1b:EGFP) embryo, pronephros?
Found: 0.939
